// provenance: ChEMBL document CHEMBL4229546

Study System: Tyrosine-protein kinase JAK1 (Homo sapiens, UniProt P23458)
Sequence (P23458 whole entry): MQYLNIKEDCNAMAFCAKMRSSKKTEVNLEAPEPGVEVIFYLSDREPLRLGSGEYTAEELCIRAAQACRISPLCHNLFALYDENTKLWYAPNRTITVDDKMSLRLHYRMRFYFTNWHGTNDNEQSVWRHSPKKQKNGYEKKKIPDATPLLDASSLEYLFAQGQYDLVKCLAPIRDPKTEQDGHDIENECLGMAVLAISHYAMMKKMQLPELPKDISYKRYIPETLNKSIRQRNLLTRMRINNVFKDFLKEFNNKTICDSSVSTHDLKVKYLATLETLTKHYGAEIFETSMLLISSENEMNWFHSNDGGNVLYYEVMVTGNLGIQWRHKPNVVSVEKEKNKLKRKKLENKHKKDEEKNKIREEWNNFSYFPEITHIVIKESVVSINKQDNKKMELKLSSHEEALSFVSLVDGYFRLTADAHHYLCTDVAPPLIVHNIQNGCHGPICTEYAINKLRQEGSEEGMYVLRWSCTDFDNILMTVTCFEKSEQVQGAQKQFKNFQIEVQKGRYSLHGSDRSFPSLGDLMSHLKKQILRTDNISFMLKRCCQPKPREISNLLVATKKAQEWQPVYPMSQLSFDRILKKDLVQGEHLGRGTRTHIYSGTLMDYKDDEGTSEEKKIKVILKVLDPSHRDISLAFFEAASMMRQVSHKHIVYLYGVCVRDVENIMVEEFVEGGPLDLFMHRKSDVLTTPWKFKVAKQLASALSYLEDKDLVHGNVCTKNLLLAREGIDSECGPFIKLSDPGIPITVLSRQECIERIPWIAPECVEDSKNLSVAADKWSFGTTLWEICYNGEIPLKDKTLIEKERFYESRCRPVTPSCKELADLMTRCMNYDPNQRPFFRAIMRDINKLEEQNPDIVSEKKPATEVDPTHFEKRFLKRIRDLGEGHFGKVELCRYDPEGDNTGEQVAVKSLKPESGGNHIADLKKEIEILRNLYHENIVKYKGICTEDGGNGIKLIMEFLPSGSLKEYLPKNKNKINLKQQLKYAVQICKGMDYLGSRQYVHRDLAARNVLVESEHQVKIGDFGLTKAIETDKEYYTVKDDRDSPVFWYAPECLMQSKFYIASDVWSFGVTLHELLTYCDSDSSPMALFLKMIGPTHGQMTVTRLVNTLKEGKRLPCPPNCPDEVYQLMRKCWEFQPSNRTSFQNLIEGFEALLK
Overview of reported IC50 across a group of compounds:
Kindly answer with a numeric value in nM, unit omitted.

If you can, please state the reported IC50 value of Cn1cc(-c2nn(CC3CCCN(C(=O)CC#N)C3)c3ncnc(N)c23)cn1 (centres undefined) .
147

Lookup COCCn1cc(-c2nn(C3CCCN(C(=O)CC#N)C3)c3ncnc(N)c23)cn1 (centres undefined)
497

Lookup C=CC(=O)N1CCC(n2nc(-c3cnn(C)c3)c3c(N)ncnc32)C1 (centres undefined)
694

Lookup C=CC(=O)N1CCCC(n2nc(-c3cnn(CCOC)c3)c3c(N)ncnc32)C1 (centres undefined)
1350

Lookup COCCn1cc(-c2nn(CC3CCCN(C(=O)CC#N)C3)c3ncnc(N)c23)cn1 (centres undefined)
497

Lookup C=CC(=O)N1CCCC(Cn2nc(-c3cnn(C)c3)c3c(N)ncnc32)C1 (centres undefined)
1950
